ASSAY TARGET: T1, FX activation peptide 12-mer ATSSSGEAPDSI (human)
T1 peptide: ATSSSGEAPDSI-biotin
RUN DESCRIPTION: peptide ELISA
Ends that are not written are not given here.
QUANTITY MEASURED: ELISA signal relative to background
Give a plain numeric answer without units written out.

1) Nb 701B09 (VHH, monovalent Nanobody; also called Nb 701609; not shown: C-terminal FLAG3 and HIS6 tag) VHH: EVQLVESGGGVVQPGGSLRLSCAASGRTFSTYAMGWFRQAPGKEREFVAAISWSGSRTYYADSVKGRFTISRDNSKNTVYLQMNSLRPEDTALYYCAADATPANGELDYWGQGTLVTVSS	0.82
2) Nb 729A04 (VHH, monovalent Nanobody; not shown: C-terminal FLAG3 and HIS6 tag) VHH: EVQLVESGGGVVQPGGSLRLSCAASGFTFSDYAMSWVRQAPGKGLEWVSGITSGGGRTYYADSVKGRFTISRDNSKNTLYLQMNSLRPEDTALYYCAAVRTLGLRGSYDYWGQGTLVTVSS	1.24
3) Nb 701D07 (VHH, monovalent Nanobody; not shown: C-terminal FLAG3 and HIS6 tag) VHH: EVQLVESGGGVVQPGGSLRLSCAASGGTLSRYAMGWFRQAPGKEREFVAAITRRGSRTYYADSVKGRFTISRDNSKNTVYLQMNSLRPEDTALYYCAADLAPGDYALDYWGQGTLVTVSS	0.86
4) Nb 701C06 (VHH, monovalent Nanobody; not shown: C-terminal FLAG3 and HIS6 tag) VHH: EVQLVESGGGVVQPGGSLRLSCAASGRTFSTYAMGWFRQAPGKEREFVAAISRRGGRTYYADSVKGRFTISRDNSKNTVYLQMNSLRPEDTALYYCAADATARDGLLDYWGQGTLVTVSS	0.91
5) Nb 501A02 (VHH, monovalent control Nanobody; also called control Nanobody; not shown: C-terminal FLAG3 and HIS6 tag) VHH: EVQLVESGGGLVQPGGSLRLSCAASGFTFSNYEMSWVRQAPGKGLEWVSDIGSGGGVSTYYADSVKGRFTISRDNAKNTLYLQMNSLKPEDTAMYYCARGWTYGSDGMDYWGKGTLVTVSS	0.82

Please turn your attention to the following entry.
ELISA signal relative to background reported for this binder Nb 729C08 (VHH, monovalent Nanobody; also called Nb 729008; not shown: C-terminal FLAG3 and HIS6 tag) VHH: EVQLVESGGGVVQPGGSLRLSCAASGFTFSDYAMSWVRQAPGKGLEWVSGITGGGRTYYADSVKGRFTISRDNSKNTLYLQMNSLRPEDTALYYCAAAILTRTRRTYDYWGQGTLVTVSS : 1.13
